# TEST: splicing luciferase reporter signal modulators, primary screen, spliceosome inhibition project, cell-based, HEK293, splice +/- reporter (AID 1101);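 further: HEK293 cells carrying a splicing-competent luciferase reporter gene; test concentration not given here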
# MEASUREMENT CONDITIONS: luminescence, 24 h, higher = more signal, called active from +8 up or from −8 down
Entry flag: true (1) if z-score reaches -0.3; false (0) if it does not.

[[record]]
compound = "C=CCC(OC(C)=O)[C@@H]1[C@@H](N(Cc2ccc(-c3ccccc3)cc2)C(=O)Cc2ccc(F)cc2)c2cc(OCCCO)ccc2N1C(=O)c1ccc2ccccc2n1 (stereo partly specified)"
category = "false (0)"

[[record]]
compound = "C=CCNC(=O)[C@@H]1[C@H]2C(=O)O[C@H](c3ccccc3)[C@H](c3ccccc3)N2[C@H](c2ccccc2OCCO)[C@@]12C(=O)Nc1ccc(C#CC3=CCCCC3)cc12"
category = "false (0)"

[[record]]
compound = "CCOC(=O)C1=CCC(c2ccc([N+](=O)[O-])cc2)N(S(=O)(=O)c2ccc(C)cc2)C1 (stereo unspecified)"
category = "true (1)"

[[record]]
compound = "COc1ccc([Si](C)(C)[C@H]2[C@H](CCn3cc([C@H](O)c4ccccc4)nn3)O[C@@]3(C(=O)N(Cc4cccc(N5CCC5=O)c4)c4ccccc43)[C@@H]2C)cc1"
category = "false (0)"

[[record]]
compound = "[N-]=[N+]=NCc1ccccc1[C@@H]1OC(c2ccc(OCCCO)cc2)=N[C@]1(Cc1ccccc1)C(=O)N1CCCCC1"
category = "true (1)"

[[record]]
compound = "CCCCC=C[C@@H](NC(=O)c1ccc(C(=O)OC)cc1)c1ccccc1"
category = "false (0)"

[[record]]
compound = "COCCOC(=O)N1C(=O)[C@@]2(c3cc(C#CCCO)ccc31)[C@H](c1ccccc1OCCO)N1[C@H](c3ccccc3)[C@H](c3ccccc3)OC(=O)[C@H]1[C@@H]2C(=O)N1CCN(c2ncccn2)CC1"
category = "false (0)"

[[record]]
compound = "COc1ccc(C(=O)Nc2cccc(CN3C(=O)[C@]4(O[C@H](CC(=O)N5CCC[C@H]5CO)[C@@H]([Si](C)(C)c5ccc(OC)cc5)[C@@H]4C)c4ccccc43)c2)cc1"
category = "true (1)"

[[record]]
compound = "O=C1C=CC(=O)[C@@H]2CC(COc3ccccc3)=C3[C@@H](CCc4ccccc4)OB(O)C[C@@H]3[C@H]12"
category = "true (1)"

[[record]]
compound = "COc1cc(CO)ccc1OC(C)=O"
category = "false (0)"

[[record]]
compound = "CCCCC(CC)C(O)C1C=CC2C(=O)N(c3ccccc3)C(=O)C2N1Nc1ccccc1 (stereo unspecified)"
category = "false (0)"

[[record]]
compound = "COC(=O)C[C@H]1O[C@]2(C(=O)N(Cc3ccccc3)c3ccc(NC(C)=O)cc32)[C@@H](C)[C@@H]1[Si](C)(C)c1ccc(OC)cc1"
category = "false (0)"

[[record]]
compound = "O=C1OCC=C[C@H]2OC34C=CCN(c5ccc(Cl)cc5)C(=O)[C@H]3N(CCCCCCO)C(=O)[C@@H]4[C@@H]12 (stereo partly specified)"
category = "false (0)"

[[record]]
compound = "O=C1C2C=CC(C(O)c3ccc(-c4ccccc4)s3)N(n3cnnc3)C2C(=O)N1Cc1ccccc1 (stereo unspecified)"
category = "false (0)"

[[record]]
compound = "COC(=O)[C@@]1(Cc2ccc(OC)cc2)[C@H]2c3cc(C(=O)N4CCCC4)n(CCc4c[nH]c5cc(F)ccc45)c3C[C@H]2CN1C(=O)c1ccccc1"
category = "false (0)"

[[record]]
compound = "O=C1OCCC/C=C\\[C@H]2OC34C=CCN(Cn5nnc6ccccc65)C(=O)[C@H]3N(CCCCCO)C(=O)[C@@H]4C12 (stereo partly specified)"
category = "false (0)"

[[record]]
compound = "COCCOC(=O)N1C(=O)[C@@]2(c3cc(C#CCCO)ccc31)[C@H](c1ccc(O)cc1)N1[C@H](c3ccccc3)[C@H](c3ccccc3)OC(=O)[C@H]1[C@@H]2C(N)=O"
category = "false (0)"

[[record]]
compound = "O=C1O[C@H](c2ccccc2)[C@H](c2ccccc2)N2[C@H]1[C@@H](C(=O)Nc1nc3ccccc3s1)[C@]1(C(=O)Nc3ccccc31)[C@H]2c1ccc(O)cc1"
category = "false (0)"

[[record]]
compound = "COC(=O)[C@]1(Cc2ccccc2N=[N+]=[N-])N=C(c2ccc(OCCCO)cc2)O[C@@H]1c1ccccc1N=[N+]=[N-]"
category = "false (0)"

[[record]]
compound = "C=CCC(OC(C)=O)[C@@H]1[C@@H](N(Cc2cc3ccccc3o2)C(=O)c2ccc(C)cc2)c2cc(OCCCO)ccc2N1C(=O)c1ccc2ccccc2c1 (stereo partly specified)"
category = "false (0)"

[[record]]
compound = "CC(c1ccccc1)C(O)C1C=CC2C(=O)NC(=O)C2N1Nc1ccccn1 (stereo unspecified)"
category = "true (1)"

[[record]]
compound = "CCCCC(O)C1C=CC2C(=O)N(C3CCCCC3)C(=O)C2N1Nc1ccc(OC)cc1 (stereo unspecified)"
category = "true (1)"

[[record]]
compound = "CCCNC(=O)[C@@]1(c2ccc([N+](=O)[O-])cc2)CC(=O)N(CC23CC4CC(CC(C4)C2)C3)[C@@H]1c1ccc(CO)cc1"
category = "true (1)"

[[record]]
compound = "C=C(COC)C(=O)CC[C@@H](OC(=O)c1cccnc1)c1ccc(CO)o1"
category = "true (1)"

[[record]]
compound = "COc1cc2c(cc1OC)CN(C(=O)[C@@H]1[C@H]3C(=O)O[C@H](c4ccccc4)[C@H](c4ccccc4)N3[C@H](c3ccccc3OCCO)[C@@]13C(=O)Nc1ccc(C#CCNC(N)=O)cc13)CC2"
category = "true (1)"

[[record]]
compound = "COC(=O)C[C@@H]1C[C@H](C)[C@]2(O1)C(=O)N(Cc1ccccc1)c1ccc(NC(C)=O)cc12"
category = "true (1)"

